Origin of values: PubChem BioAssay AID624483

Test: compound fluorescence in toxin protease inhibitor counterscreen, primary screen, artefact control for toxin protease inhibitor project, biochemical, multiplex microsphere, HTS (AID 624483)
Settings: compound autofluorescence counterscreen, microsphere flow cytometry
In all, about 360,000 compounds went through this assay and about 11,000 (3.1%) were called active. Inconclusive results (about 2%) are left out. No stated cut-off is given here; in the data, active means fluorescence intensity above about 16000; inconclusive means no clear call, values can overlap the other calls; inactive means below that. This is one part of a sample in which actives are shown more often than they occur.
Field 'call' accepts True for active, False for inactive

Per the records of this test, what outcome belongs to `O=C(c1cc(-c2ccc(Cl)cc2)on1)N1CCN(c2ccccc2)CC1` ?
False

Per the records of this test, what outcome belongs to `c1ccc(COc2nsnc2N2CCOCC2)cc1` ?
False

Per the records of this test, what outcome belongs to Cc1cccc(-c2cnc(C(O)c3ccc4ccccc4c3)[nH]2)c1 (centres undefined) ?
False

Per the records of this test, what outcome belongs to `CCCCN(C=O)c1c(CC)nc2c(OCc3ccccc3C(=O)OC)cccn12` ?
False

Per the records of this test, what outcome belongs to CC1(C)CC(=O)C2=C(C1)N=C1SCCC(=O)N1C2c1ccc(C(F)(F)F)cc1 (centres undefined) ?
True

Per the records of this test, what outcome belongs to `O=C(O)c1ccc(COCC(F)(F)F)cc1` ?
True

Per the records of this test, what outcome belongs to `Cc1cc(C)nc(NC(=O)Nc2ccccc2C(F)(F)F)n1` ?
True

Per the records of this test, what outcome belongs to CN(CC1CCCN(CCc2cccc(C(F)(F)F)c2)C1)C(=O)c1ccc2nc[nH]c2c1 (centres undefined) ?
False

Per the records of this test, what outcome belongs to `CC(C)Oc1cc(F)ccc1-c1cc(C(=O)Nc2cccc(Cl)c2)[nH]n1` ?
False

Per the records of this test, what outcome belongs to `Cc1cccc2cc(CN(Cc3nnnn3Cc3ccccc3)C3CCCC3)c(=O)[nH]c12` ?
False

Per the records of this test, what outcome belongs to `CN(Cc1ccccc1)C(=O)C(=O)c1cn(CC(=O)N2CCCC2)c2ccccc12` ?
False

Per the records of this test, what outcome belongs to `NNC(=O)c1ccc(COCC(F)(F)C(F)F)cc1` ?
False

Per the records of this test, what outcome belongs to `COCc1cc(C)nc(SCC(=O)Nc2cccc(C)c2)c1C#N` ?
False

Per the records of this test, what outcome belongs to `COc1ccc(C2=NO[C@@H]3C(=O)N(Cc4ccccc4)C(=O)[C@H]23)cc1OC` ?
False
